- Tgt: Retinoic acid receptor RXR-alpha (Homo sapiens) (UniProt P19793)
- Sequence (P19793 whole entry, looked up): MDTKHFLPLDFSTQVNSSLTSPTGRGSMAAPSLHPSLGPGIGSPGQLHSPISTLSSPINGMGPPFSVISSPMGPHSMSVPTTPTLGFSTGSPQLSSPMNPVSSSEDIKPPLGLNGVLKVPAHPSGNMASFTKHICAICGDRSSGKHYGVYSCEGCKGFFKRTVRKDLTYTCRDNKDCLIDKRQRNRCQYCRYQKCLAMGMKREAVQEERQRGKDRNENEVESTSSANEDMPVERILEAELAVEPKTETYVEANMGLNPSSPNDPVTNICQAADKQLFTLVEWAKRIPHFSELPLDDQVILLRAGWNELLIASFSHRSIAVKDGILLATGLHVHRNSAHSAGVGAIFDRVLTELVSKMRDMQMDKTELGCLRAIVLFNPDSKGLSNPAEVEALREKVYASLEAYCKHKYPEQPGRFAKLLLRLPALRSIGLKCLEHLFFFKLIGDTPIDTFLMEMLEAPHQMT
- Assay comment: qHTS assay to identify small molecule agonists of the RXR signaling pathway (AID 1159527); note: nearly all actives have a fitted effect of over 35% in size
- Condition set: HEK293T RXRa-UAS-bla, beta-lactamase ratio, 16 h; series mostly up to 76.8 µM
Results filed as inconclusive are left out. Active and inactive are the calls of the source. Calls come from the whole dose curve.
Give one outcome, nothing more. List: TRUE (active), FALSE (inactive)

Some solved entries appear below for comparison.
Molecule: O=C(c1ccc(O)cc1O)c1ccc(O)cc1O
Tgt: Retinoic acid receptor RXR-alpha (Homo sapiens) (UniProt P19793)
Class: FALSE
--
Molecule: NNC(=O)c1cccc(C(=O)NN)c1
Tgt: Retinoic acid receptor RXR-alpha (Homo sapiens) (UniProt P19793)
Class: FALSE
--
Molecule: CCCCCOC(=O)CCCC
Tgt: Retinoic acid receptor RXR-alpha (Homo sapiens) (UniProt P19793)
Class: FALSE

How was "Cc1onc(-c2ccccc2Cl)c1C(=O)N[C@@H]1C(=O)N2[C@@H]1SC(C)(C)[C@@H]2C(=O)O" classified in this test?
FALSE

How was "O=C(O)c1ccc(Cl)c(Cl)c1" classified in this test?
FALSE

How was "Nc1c(Cl)cc(Cl)cc1Cl" classified in this test?
TRUE

How was "CCCCCCCC(=O)[O-].CCCCCCCC(=O)[O-].[Zn+2]" classified in this test?
FALSE

How was "CSc1ccc(C(=O)c2[nH]c(=O)[nH]c2C)cc1" classified in this test?
FALSE

====

- Tgt: Estrogen receptor beta (Homo sapiens) (UniProt Q92731)
- Sequence (Q92731 whole entry, looked up): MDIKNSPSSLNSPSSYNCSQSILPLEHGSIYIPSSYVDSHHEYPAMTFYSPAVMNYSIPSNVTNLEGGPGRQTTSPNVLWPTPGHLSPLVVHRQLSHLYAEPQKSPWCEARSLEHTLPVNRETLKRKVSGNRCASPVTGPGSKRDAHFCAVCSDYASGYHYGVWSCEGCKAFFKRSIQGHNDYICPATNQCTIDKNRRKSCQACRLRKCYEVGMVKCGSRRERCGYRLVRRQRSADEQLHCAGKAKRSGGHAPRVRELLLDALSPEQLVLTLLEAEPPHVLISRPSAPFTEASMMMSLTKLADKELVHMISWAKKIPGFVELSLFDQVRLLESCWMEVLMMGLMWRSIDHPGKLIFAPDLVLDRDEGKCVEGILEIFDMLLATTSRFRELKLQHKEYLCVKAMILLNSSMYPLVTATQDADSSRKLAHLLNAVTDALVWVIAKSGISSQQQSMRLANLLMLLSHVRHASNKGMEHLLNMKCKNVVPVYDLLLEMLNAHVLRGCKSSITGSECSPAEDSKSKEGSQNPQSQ
- Assay comment: qHTS assay to identify small molecule antagonists of the estrogen receptor beta (ER-beta) signaling pathway (AID 1259378)
- Condition set: ER-beta-UAS-bla HEK293T, beta-lactamase FRET ratio, 16 h; series mostly up to 92.4 µM
- Excerpt: National Center for Advancing Translational Sciences [NCATS] NIH Chemical Genomics Center [NCGC] U.S. Environmental Protection Agency [EPA] National Institutes of Environmental Health Sciences [NIEHS] National Toxicology Program [NTP] U.S. Food and Drug Administration [FDA] Estrogen receptor (ER), a nuclear hormone receptor, plays an important role in development, metabolic homeostasis and reproduction. […]
Inconclusive results are not listed. Active and inactive are the calls of the source. Calls follow the shape of the dose curve; as a rule, active = well fitted inhibition curve with a large enough effect in the signal ratio in the repeat runs (not every such curve was filed as active); inconclusive = weak or mixed curves, or effect the other way; inactive = no such curve, though single readings can be large or run the other way; the % refers to the signal ratio.
Give one outcome, nothing more. List: yes = active, no = inactive

Some solved entries appear below for comparison.
Compound: C/C=C(\C)C(=O)OCc1ccccc1
Tgt: Estrogen receptor beta (Homo sapiens) (UniProt Q92731)
Class: no
--
Compound: CSc1cnc(C)cn1
Tgt: Estrogen receptor beta (Homo sapiens) (UniProt Q92731)
Class: no
--
Compound: CC(C)C(C)(C)C(C)(C)C(C)(C)S
Tgt: Estrogen receptor beta (Homo sapiens) (UniProt Q92731)
Class: no
--
Compound: On1ccccc1=S
Tgt: Estrogen receptor beta (Homo sapiens) (UniProt Q92731)
Class: yes
--
Compound: Cc1[nH]cnc1C[C@H]1CCc2c(C)c3ccccc3n2C1=O
Tgt: Estrogen receptor beta (Homo sapiens) (UniProt Q92731)
Class: yes

How was "Cc1onc(-c2ccccc2Cl)c1C(=O)N[C@@H]1C(=O)N2[C@@H]1SC(C)(C)[C@@H]2C(=O)O" classified in this test?
no

How was "O=C(O)c1c(Cl)cccc1Cl" classified in this test?
no

How was "CCC(CN)=C(c1ccccc1)c1ccccc1" classified in this test?
yes

How was "C[C@]12CCC(=O)C=C1CC[C@@H]1[C@@H]2[C@@H](O)C[C@@]2(C)[C@H]1CC[C@]2(O)C(=O)COC(=O)CCC(=O)O" classified in this test?
no

How was "O=S1(=O)CC(Cl)(Cl)C(Cl)(Cl)C1" classified in this test?
yes

How was "C1CCCC1" classified in this test?
no

How was "CCCCCCCCCCCCCCCS(=O)(=O)Oc1ccccc1" classified in this test?
no

How was "OCCCCCCCCCCCCBr" classified in this test?
yes

====

- Assay comment: A CellTox Green Cytotoxicity Assay to monitor cytotoxicity in HEK293 cells - 40 hour (AID 1224871); note: nearly all actives have a fitted effect of over 45% in size; note: potency is the fitted concentration of half-maximal effect
- Condition set: CellTox Green fluorescence; series mostly up to 76.8 µM
Inconclusive results are not listed. Activity calls are given as the source filed them. Calls come from the whole dose curve; as a rule, active = well fitted activation curve with a large enough effect in the repeat runs; inconclusive = weak or mixed curves; inactive = flat fitted curve, though single readings scatter.
Assay endpoint: Potency

Structure string: Oc1cccc2cc3cccc(O)c3c(O)c12
Assay endpoint: Potency
Test value: inactive
//
Structure string: [Cl][Bi]([Cl])([c]1ccccc1)([c]1ccccc1)[c]1ccccc1
Assay endpoint: Potency
Test value: 24.4 µM (active)
//
Structure string: Nc1ccccc1O
Assay endpoint: Potency
Test value: inactive

====

- Assay comment: qHTS assay to identify small molecule agonists of the progesterone receptor (PR) signaling pathway - cell viability counter screen (AID 1346799); note: nearly all actives have a fitted effect of over 45% in size
- Condition set: PR-UAS-bla HEK293T viability, CellTiter-Glo luminescence, 16 h; series mostly up to 92.4 µM
Results filed as inconclusive are left out. Activity calls are given as the source filed them. Calls come from the whole dose curve.
Give one outcome, nothing more. List: active, inactive

Compound: Oc1ccc(Cl)cc1Sc1cc(Cl)ccc1O
Class: inactive

Compound: OCCCCCCCCCCCCBr
Class: inactive

Compound: O=[N+]([O-])c1cc([N+](=O)[O-])c2ccc(S(=O)(=O)O)cc2c1O
Class: inactive

Compound: ON=C1CCCC1
Class: active

Compound: N=C1N=C(N)c2cc3ccccc3cc21
Class: active

Compound: OCCN1CCN(CC/C=C2/c3ccccc3Sc3ccc(C(F)(F)F)cc32)CC1
Class: active

Compound: OC1(c2ccc(Cl)c(C(F)(F)F)c2)CCN(CCCC(c2ccc(F)cc2)c2ccc(F)cc2)CC1
Class: active

Compound: CCCCCCCCNC(C)C(O)c1ccc(SC(C)C)cc1 (stereo not given)
Class: active

How was "CCCCCCCCCCCCc1ccc(O)cc1" classified in this test?
active

How was "CCc1cc(SCc2sc(-c3ccc(C(F)(F)F)cc3)nc2CN2CCN(c3ccc(OC)cc3)CC2)ccc1OCC(=O)O" classified in this test?
active

How was "CSc1ccc(C(=O)c2[nH]c(=O)[nH]c2C)cc1" classified in this test?
inactive

How was "CC(C)(C)CC(C)(C)c1ccc(O)c(Cc2ccc(Cl)cc2Cl)c1" classified in this test?
active

How was "CCCCCCCC/C=C/CCCCCCCC1=NCCN1CCO" classified in this test?
active

How was "CCCC/C=C/CCCCO" classified in this test?
inactive

How was "Clc1ccccc1C(c1ccccc1)(c1ccccc1)n1ccnc1" classified in this test?
active

====

- Tgt: Glucocorticoid receptor (Homo sapiens) (UniProt P04150)
- Sequence (P04150 whole entry, looked up): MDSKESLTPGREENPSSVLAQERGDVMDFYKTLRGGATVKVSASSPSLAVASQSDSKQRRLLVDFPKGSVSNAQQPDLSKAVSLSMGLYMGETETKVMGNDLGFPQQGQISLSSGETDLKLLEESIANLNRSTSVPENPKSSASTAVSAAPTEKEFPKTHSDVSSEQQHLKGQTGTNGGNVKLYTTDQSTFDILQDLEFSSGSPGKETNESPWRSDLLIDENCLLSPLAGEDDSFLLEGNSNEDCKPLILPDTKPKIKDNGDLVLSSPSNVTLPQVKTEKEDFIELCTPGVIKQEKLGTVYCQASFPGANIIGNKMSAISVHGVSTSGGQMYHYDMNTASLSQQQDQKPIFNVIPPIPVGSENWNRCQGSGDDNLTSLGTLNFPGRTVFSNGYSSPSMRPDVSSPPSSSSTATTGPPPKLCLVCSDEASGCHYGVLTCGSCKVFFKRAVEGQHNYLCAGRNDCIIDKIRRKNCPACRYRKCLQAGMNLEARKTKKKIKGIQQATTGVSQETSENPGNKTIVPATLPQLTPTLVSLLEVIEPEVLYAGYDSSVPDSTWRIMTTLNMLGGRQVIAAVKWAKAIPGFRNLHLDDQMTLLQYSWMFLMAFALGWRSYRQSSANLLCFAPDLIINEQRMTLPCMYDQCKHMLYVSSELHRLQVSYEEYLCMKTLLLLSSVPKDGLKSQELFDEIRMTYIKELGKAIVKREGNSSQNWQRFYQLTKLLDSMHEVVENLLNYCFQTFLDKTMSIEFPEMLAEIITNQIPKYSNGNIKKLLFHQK
- Assay comment: qHTS assay to identify small molecule agonists of the glucocorticoid receptor (GR) signaling pathway (AID 720691)
- Condition set: GR-bla HeLa, beta-lactamase reporter ratio, 18 h
- Excerpt: U.S. Tox21 Program National Center for Advancing Translational Sciences [NCATS] NIH Chemical Genomics Center [NCGC] U.S. Environmental Protection Agency [EPA] National Institutes of Environmental Health Sciences [NIEHS] National Toxicology Program [NTP] U.S. Food and Drug Administration [FDA] […] The activation of the reporter gene under culture conditions can be detected by fluorescence intensity. […]
Inconclusive results are not listed. Calls of active or inactive are those of the source. Calls come from the whole dose curve; as a rule, active = well fitted activation curve with a large enough effect in the signal ratio in the repeat runs (not every such curve was filed as active); inconclusive = weak or mixed curves, or effect the other way; inactive = no such curve, though single readings can be large or run the other way; the % refers to the signal ratio.
Give one outcome, nothing more. List: True for active, False for inactive

Some solved entries appear below for comparison.
Compound: CCCC(C)c1ccccc1O (stereo not given)
Class: False

Compound: CCOC(=O)O[C@]1(C(=O)OCCl)CC[C@H]2[C@@H]3CCC4=CC(=O)C=C[C@]4(C)[C@H]3[C@@H](O)C[C@@]21C
Class: True

Compound: Nc1ccccc1O
Class: False

Compound: Cn1cc(C(=O)[C@@H]2CCc3nc[nH]c3C2)c2ccccc21
Class: False

Compound: CCN(C(=O)N(CC)c1ccccc1)c1ccccc1
Class: False

How was "CC[C@@]1(O)C(=O)OCc2c1cc1n(c2=O)Cc2cc3c(CN(C)C)c(O)ccc3nc2-1" classified in this test?
False

How was "CCCCCCOC(=O)c1ccc(O)cc1" classified in this test?
False

How was "NNC(=O)c1cccc(C(=O)NN)c1" classified in this test?
False

How was "CCC1=C[C@@H]2CN(C1)Cc1c([nH]c3ccccc13)[C@@](C(=O)OC)(c1cc3c(cc1OC)N(C)[C@H]1[C@@](O)(C(=O)OC)[C@H](OC(C)=O)[C@]4(CC)C=CCN5CC[C@]31[C@@H]54)C2" classified in this test?
False

How was "C/C=C(\C)C(=O)OCc1ccccc1" classified in this test?
False

====

- Assay comment: qHTS assay to identify small molecule agonists of the TGF-beta/Smad signaling pathway - cell viability counter screen (AID 1346829); note: nearly all actives have a fitted effect of over 45% in size
- Condition set: SBE-bla HEK293T viability, CellTiter-Glo luminescence, 5 h; series mostly up to 76.8 µM
Results filed as inconclusive are left out. The source made the active and inactive calls. The call rests on the fitted dose curve; in most records, active means well fitted cell-killing curve with a large enough effect in the repeat runs; inconclusive means weak or mixed curves, or effect the other way; inactive means flat fitted curve, though single readings scatter.
Give one outcome, nothing more. List: true = active, false = inactive

Some solved entries appear below for comparison.
Compound: CC/C(=C(\c1ccc(O)cc1)c1ccc(OCCN(C)C)cc1)c1ccccc1
Class: true
//
Compound: CC(C)(C)C(=O)OCOC(=O)C1N2C(=O)CC2S(=O)(=O)C1(C)C (stereo unspecified)
Class: false
//
Compound: Nc1nc2ccccc2n1Cc1ccc(F)cc1
Class: false
//
Compound: CCCCCCCCCCCCCCCCCC[N+](C)(C)C
Class: true
//
Compound: Oc1c(Cl)cc(Cl)c2cccnc12
Class: false

How was Cc1oc(-c2ccccc2)nc1CCC(=O)c1ccc(CC2SC(=O)NC2=O)cc1 (stereo unspecified) classified in this test?
false

Provenance of the data: PubChem BioAssay (Tox21)
